test-target: SARS-CoV-2 PLpro (Severe acute respiratory syndrome coronavirus 2)
method-notes: Pro-ISG15 cleavage assay
Format: biochemical
experimental-context: read-out: Inhibition rate of PLpro-mediated deISGylation
# maps each entry to its inhibition at 10 µM

{"columns": ["smiles-representation", "inhibition at 10 µM"],
 "data": [
  ["O=c1cc(-c2ccc(Oc3c(O)cc4oc(-c5ccc(O)cc5)cc(=O)c4c3O)cc2)oc2cc(O)cc(O)c12", "65.6 to 98%"],
  ["COc1ccc(-c2cc(=O)c3c(O)cc(O)c(-c4cc(-c5cc(=O)c6c(O)cc(O)cc6o5)ccc4O)c3o2)cc1", "53.2 to 71.1%"],
  ["COc1ccc(-c2cc(=O)c3c(O)cc(O)c(-c4cc(-c5cc(=O)c6c(O)cc(O)cc6o5)ccc4OC)c3o2)cc1", "53.2 to 71.1%"]
]}

We next turn to a different compound, shown below.
Please indicate inhibition at 10 µM recorded for COc1cc(O)c2c(=O)cc(-c3ccc(OC)c(-c4c(O)cc(O)c5c(=O)cc(-c6ccc(O)cc6)oc45)c3)oc2c1
53.2 to 71.1%
